molecular target: T1, recombinant hSIRPα (extracellular portion) (human, UniProt P78324 31-373, biotinylated with Sulfo-NHS-LC-LC-Biotin where immobilised on streptavidin sensors); assay: BLI, biotinylated hSIRPα immobilised on streptavidin biosensors, Nb in solution, global 1:1 fit
T1 construct: extracellular domain; The limits aa31-370 are stated for the immunogen; The BLI and HDX text says only 'recombinant hSIRPα' / 'biotinylated hSIRPα'; also called biotinylated hSIRPα
T1 sequence (P78324 31-373): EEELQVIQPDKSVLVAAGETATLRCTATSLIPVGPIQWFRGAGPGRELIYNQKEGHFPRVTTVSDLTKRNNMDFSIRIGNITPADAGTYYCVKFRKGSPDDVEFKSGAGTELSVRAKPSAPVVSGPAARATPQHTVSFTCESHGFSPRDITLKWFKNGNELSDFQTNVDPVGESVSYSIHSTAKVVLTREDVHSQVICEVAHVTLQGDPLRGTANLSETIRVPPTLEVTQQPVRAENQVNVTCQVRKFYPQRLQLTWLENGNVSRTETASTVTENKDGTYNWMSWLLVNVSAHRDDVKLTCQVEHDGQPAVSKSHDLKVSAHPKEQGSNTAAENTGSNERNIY
Below, each entry is listed alongside its reported pKd.
Formally, pKd is defined as -log10 of the concentration c, with c in mol/L.

hSIRPα nanobody S7 (VHH, Expressed from pHEN6 in E. coli and purified by IMAC; the tag is not described; also called Nb S7) VHH: HVQLVESGGGLVQVGDSLRLSCAPSGRTFRAYAMAWFRQAPGKEREFVAAIRWIGGTPSYKDSVKGRFTISRDNARNTFYLQMNSLEPQDTGVYYCAAEETQKGSGLGHDGRHYDYWGQGTPVTVSS :: 7.70
hSIRPα nanobody S36 (VHH, also called Nb S36; hSIRPα-S36 Nb) VHH: EVQLVESGGGLVQPGGSLRLSCAASGFTLDYYAIGWFRQVPGKEREGVSCISSDGGGNTYYADSVKGRFTISRDNAKNTVYLQMNSLKPEDSAVYSCAAGPTYYSGSYCRDPHSDYDYWGQGTQVTVSS :: 9.92

Pending binder:
For this binder ( hSIRPα nanobody S12 (VHH, also called Nb S12) VHH: QVQLVESGGGLVQPGGSLRLSCLVSGFSSSYYAIGWFRQAPGKEREGVSCITRSGDTTNYADSVKGRFTISRDDARNTVYLQMNSLKTEDTAVYSCALWAWAGSGRLRCTASEYGHWGQGTQVTVSS ), measured pKd is 7.59
